- Tested on: MG-63
- assay method text: Antiproliferative activity against human MG63 cells after 96 hrs by SRB assay
- Format: functional, cell-based
- conditions: MG-63, 96 h
parameter measured: pIC50
Quick note: pIC50 means taking -log10 of the concentration in moles per liter.

mol | parameter measured | measured result
O=C(CCN1CCCC1)Nc1ccc(-n2cc(-c3ccc4ccc(-c5cn(-c6ccc(NC(=O)CCN7CCCC7)cc6)nn5)cc4c3)nn2)cc1 | pIC50 | 5.55
CCN(CC)CC(=O)Nc1ccc(-n2cc(-c3ccc4ccc(-c5cn(-c6ccc(NC(=O)CN(CC)CC)cc6)nn5)cc4c3)nn2)cc1 | pIC50 | 4.09
CCN(CC)CC(=O)Nc1cccc(-n2cc(-c3ccc4ccc(-c5cn(-c6cccc(NC(=O)CN(CC)CC)c6)nn5)cc4c3)nn2)c1 | pIC50 | 5.10

Name the recorded pIC50 for "O=C(CN1CCCCC1)Nc1cccc(-n2cc(-c3ccc4ccc(-c5cn(-c6cccc(NC(=O)CN7CCCCC7)c6)nn5)cc4c3)nn2)c1" .
4.05

Now the molecule "O=C(CN1CCCC1)Nc1cccc(-n2cc(-c3ccc4ccc(-c5cn(-c6cccc(NC(=O)CN7CCCC7)c6)nn5)cc4c3)nn2)c1"
4.80

Now the molecule "CCN(CC)CCC(=O)Nc1ccc(-n2cc(-c3ccc4ccc(-c5cn(-c6ccc(NC(=O)CCN(CC)CC)cc6)nn5)cc4c3)nn2)cc1"
5.15

----------
- assay method text: Therapeutic index, ratio of IC50 for human U2OS cells to IC50 for human WI38 cells
- Format: cell-based
- conditions: U2OS cells and WI38 cells, read-out: Ratio IC50
parameter measured: selectivity ratio
Reply briefly: the number, and no unit.

Name the recorded selectivity ratio for "CCN(CC)CC(=O)Nc1cccc(-n2cc(-c3ccc4ccc(-c5cn(-c6cccc(NC(=O)CN(CC)CC)c6)nn5)cc4c3)nn2)c1" .
40

----------
- assay method text: Therapeutic index, ratio of IC50 for human A498 cells to IC50 for human WI38 cells
- Format: cell-based
- conditions: A498 cells and WI38 cells, read-out: Ratio IC50
parameter measured: selectivity ratio
Reply briefly: the number, and no unit.

Name the recorded selectivity ratio for "CCN(CC)CC(=O)Nc1cccc(-n2cc(-c3ccc4ccc(-c5cn(-c6cccc(NC(=O)CN(CC)CC)c6)nn5)cc4c3)nn2)c1" .
40

----------
- Tested on: MCF7
- assay method text: Antiproliferative activity against human MCF7 cells after 96 hrs by SRB assay
- Type: functional, cell-based
- conditions: MCF7, 96 h
parameter measured: IC50 (µM)
Unit µM implied. Number only.

Example results:
mol | IC50 / µM
CCN(CC)CC(=O)Nc1ccc(-n2cc(-c3ccc4ccc(-c5cn(-c6ccc(NC(=O)CN(CC)CC)cc6)nn5)cc4c3)nn2)cc1 | 100
CCN(CC)CC(=O)Nc1cccc(-n2cc(-c3ccc4ccc(-c5cn(-c6cccc(NC(=O)CN(CC)CC)c6)nn5)cc4c3)nn2)c1 | 63
CCN(CC)CCC(=O)Nc1cccc(-n2cc(-c3ccc4ccc(-c5cn(-c6cccc(NC(=O)CCN(CC)CC)c6)nn5)cc4c3)nn2)c1 | 21

Observed IC50 on MCF7 for "CCN(CC)CCC(=O)Nc1ccc(-n2cc(-c3ccc4ccc(-c5cn(-c6ccc(NC(=O)CCN(CC)CC)cc6)nn5)cc4c3)nn2)cc1" , please.
9.2
